# TEST SYSTEM: Nuclear receptor subfamily 1 group I member 2 (Homo sapiens)
# Sequence (O75469 whole entry): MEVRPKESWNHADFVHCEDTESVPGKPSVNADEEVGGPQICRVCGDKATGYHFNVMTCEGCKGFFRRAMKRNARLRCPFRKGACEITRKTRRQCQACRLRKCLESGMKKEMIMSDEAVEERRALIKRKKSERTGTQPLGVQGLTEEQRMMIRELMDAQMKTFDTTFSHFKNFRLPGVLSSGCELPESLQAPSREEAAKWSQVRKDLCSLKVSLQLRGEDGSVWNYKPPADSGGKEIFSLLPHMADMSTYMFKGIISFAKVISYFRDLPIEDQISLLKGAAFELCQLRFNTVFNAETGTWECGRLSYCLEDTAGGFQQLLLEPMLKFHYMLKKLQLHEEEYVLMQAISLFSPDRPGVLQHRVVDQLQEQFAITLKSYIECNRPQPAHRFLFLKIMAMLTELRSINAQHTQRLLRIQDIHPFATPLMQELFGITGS
# ASSAY INFO: Transactivation of PXR in human HepG2 cells
METRIC NAME: EC50 (nM)

Observe how each entry below is paired with its result.
>>> df
                      smiles_representation  measured_number
0  Cc1ccc(S(=O)(=O)[C@@]2(c3ccc(C(F)(C(F)(F)F)C(F)(F)F)cc3)CCN(C(=O)[C@H]3CC[C@H](C(=O)O)CC3)C2)cc1            12600
1  O=S(=O)(c1ccc(F)cc1)[C@]1(c2ccc(C(O)(C(F)(F)F)C(F)(F)F)cc2)CCNC1              520

[P] O=S(=O)(c1ccc(F)cc1)[C@@]1(c2ccc(C(O)(C(F)(F)F)C(F)(F)F)cc2)CCNC1
[Q] NC(c1ccc(C2(S(=O)(=O)c3ccc(F)cc3)CCCC2)cc1)(C(F)(F)F)C(F)(F)F
Prompt: Kindly identify which of P and Q has the larger recorded EC50 value. State the label of the item chosen.
Completion: P
